- Tested on: HL-60
- assay_protocol: cell viability (% survival relative to DMSO control); higher = less cytotoxic
- condition_context: 1 µM; 72 h; co-treatment: AZD3965 100 nM
property_measured: cell viability (%)
Report only the number, with the unit % understood.

Answered cases to consult:
| molecule | unit_descriptor | number |
| --- | --- | --- |
| Oc1ccc(Nc2nc(-c3ccc(Cl)cc3)cs2)cc1 | % | 104 |
| CC(C)(C#N)c1cc(Cn2cncn2)cc(C(C)(C)C#N)c1 | % | 102 |
| CCOP(=O)(OCC)C(=Cc1cc(C(C)(C)C)c(O)c(C(C)(C)C)c1)P(=O)(OCC)OCC | % | 101 |
| O=C(O)C1=CC(=C(c2ccc(O)c(C(=O)O)c2)c2ccc(O)c(C(=O)O)c2)C=CC1=O | % | 94.5 |
| O=C(NCCCCCCNC(=O)ONC1=CCCCC1)ONC1=CCCCC1 | % | 101 |
| O[C@H]1[C@H]2[C@H](O)CCCN2C[C@H]1O | % | 98.4 |
| O=c1oc2c(O)c(O)cc3c(=O)oc4c(O)c(O)cc1c4c23 | % | 99.2 |
| COc1ccc(CNC(=O)Nc2ncc([N+](=O)[O-])s2)cc1 | % | 91.4 |

Quick one: cell viability for O=C1O[C@H]([C@@H](O)CO)C(O)=C1O [Vitamin C (ascorbate)] ?
103

Quick one: cell viability for `O=C(NNc1ccccc1)c1ccncc1` ?
110

Quick one: cell viability for `CC1(C)[C@@H](O[C@H]2O[C@H](C(=O)O)[C@@H](O)[C@H](O)[C@H]2O[C@@H]2O[C@H](C(=O)O)[C@@H](O)[C@H](O)[C@H]2O)CC[C@]2(C)[C@H]3C(=O)C=C4[C@@H]5C[C@@](C)(C(=O)O)CC[C@]5(C)CC[C@@]4(C)[C@]3(C)CC[C@@H]12` ?
103

Quick one: cell viability for `CC[C@H](C)C(=O)O[C@H]1C[C@@H](C)C=C2C=C[C@H](C)[C@H](CC[C@@H]3C[C@@H](O)CC(=O)O3)[C@H]21` ?
98.2

Quick one: cell viability for Cc1ccccc1C(C(=O)NC1CCCCC1)N(C(=O)Cn1ccnc1C)c1cccc(F)c1 (stereo unspecified) ?
91.8

* * *

cell viability overview
- Test system: HEL
- assay_protocol: cell viability (% survival relative to DMSO control, bortezomib = 0%); higher = less cytotoxic
- condition_context: 1 nM; 72 h
Report only the number, with the unit % understood.

Answered cases to consult:
| molecule | study_target | property_measured | number |
| --- | --- | --- | --- |
| C[C@](N)(Cc1ccc(O)cc1)C(=O)O | HEL | cell viability | 101 |
| CC[C@H](C)C(=O)O[C@H]1C[C@@H](C)C=C2C=C[C@H](C)[C@H](CC[C@@H]3C[C@@H](O)CC(=O)O3)[C@H]21 | HEL | cell viability | 101 |
| CCCCC/C=C\C/C=C\C/C=C\C/C=C\CCCCN1C(=O)C=CC1=O [N-Arachidonylmaleimide] | HEL | cell viability | 98.7 |
| CN(C)C(=O)[C@H](O)[C@H](Cc1ccccc1)NC(=O)c1cc2cc(Cl)ccc2[nH]1 | HEL | cell viability | 98.5 |
| CN(C)c1cc(NC(=O)CNC(C)(C)C)c(O)c2c1C[C@H]1C[C@H]3[C@H](N(C)C)C(=O)C(C(N)=O)C(=O)[C@@]3(O)C(=O)C1C2=O (stereo partly drawn) | HEL | cell viability | 110 |

Param readout= cell viability; system= HEL; entry= `COc1ccc(C(=O)Nc2c(Cl)cncc2Cl)cc1OC1CCCC1` ; returns value.
95.3

Param readout= cell viability; system= HEL; entry= `O=C(C1CC1)N1CC[C@@H](C=C2NNC(=O)N2c2ccc(-c3ccc4occc4c3)cc2)C1` ; returns value.
106

Param readout= cell viability; system= HEL; entry= Cl.NC(CCC(=O)Nc1ccc([N+](=O)[O-])cc1)C(=O)O (stereo not drawn) ; returns value.
95.2

* * *

- System: myeloid leukemia patient primary cells Pat.8
- assay_protocol: area under dose-response curve (viability, 1 nM-10 uM) (fraction (0-1)); higher = more sensitive
- condition_context: 72 h
property_measured: area under dose-response curve
Enter the number alone.

Answered cases to consult:
| molecular_string | area under dose-response curve |
| --- | --- |
| COC(=O)[C@]12CCC(C)(C)C[C@H]1[C@H]1C(=O)C=C3[C@@]4(C)C=C(C#N)C(=O)C(C)(C)[C@@H]4CC[C@@]3(C)[C@]1(C)CC2 | 0.328 |
| CN(C)C(=O)n1nnnc1Cc1ccc(-c2ccccc2)cc1 | 0.132 |
| N#CC(C#N)=NNc1ccc(OC(F)(F)F)cc1 | 0.116 |
| CCC(=O)N1CCN(c2ccc(-n3c(=O)ccc4cnc5ccc(-c6cnc7ccccc7c6)cc5c43)cc2C(F)(F)F)CC1 | 0.0632 |

Quick one: area under dose-response curve for `COc1cc(/C=C/C(=O)N2CCC=CC2=O)cc(OC)c1OC` ?
0.144

* * *

- Test system: myeloid leukemia patient primary cells Pat.1
- assay_protocol: cell viability (% survival relative to DMSO control); higher = less cytotoxic
- condition_context: 1000 nM; 72 h
property_measured: cell viability (%)
Report only the number, with the unit % understood.

Answered cases to consult:
| molecular_string | number |
| --- | --- |
| C=C(C=NNC(=N)N)NNC(=N)N | 94.2 |
| O=C(O)Cn1nnc(-c2cc(N3CCC(Oc4cc(F)ccc4Br)CC3)no2)n1 | 97.5 |
| O=C(C1CC1)N1CC[C@@H](C=C2NNC(=O)N2c2ccc(-c3ccc4occc4c3)cc2)C1 | 96.2 |
| Nc1nc(Cl)nc2c1ncn2[C@H]1C[C@H](O)[C@@H](CO)O1 | 90.3 |

Lab note: next molecule to report on.
Quick one: cell viability for `COc1cc(/C=C/C(=O)N2CCC=CC2=O)cc(OC)c1OC` ?
75.6

* * *

- System: HL-60
- assay_protocol: cell viability (% survival relative to DMSO control); higher = less cytotoxic
- condition_context: 0.001 µM; 72 h; co-treatment: AZD3965 100 nM
property_measured: cell viability (%)
Report only the number, with the unit % understood.

Param readout= cell viability; system= HL-60; entry= `CC[C@@]1(O)C(=O)OCc2c1cc1n(c2=O)Cc2cc3c(CN(C)C)c(O)ccc3nc2-1` ; returns value.
99.6

Param readout= cell viability; system= HL-60; entry= `COC(=O)[C@]12CCC(C)(C)C[C@H]1[C@H]1C(=O)C=C3[C@@]4(C)C=C(C#N)C(=O)C(C)(C)[C@@H]4CC[C@@]3(C)[C@]1(C)CC2` ; returns value.
101

Param readout= cell viability; system= HL-60; entry= `Nc1ccccc1C(=O)C[C@H](N)C(=O)O` ; returns value.
93.4

Param readout= cell viability; system= HL-60; entry= `CC(C)(O)CNc1nc(Nc2ccnc(C(F)(F)F)c2)nc(-c2cccc(C(F)(F)F)n2)n1` ; returns value.
93.5

Param readout= cell viability; system= HL-60; entry= N/C(=N\CCCC(N)C(=O)O)N[N+](=O)[O-] (stereo not drawn) ; returns value.
104

Param readout= cell viability; system= HL-60; entry= CCCCCCCCCCCC(=O)c1c(O)c(C(=O)CCCCCCCCCCC)c(O)c(C2CC(c3ccc(O)cc3)Oc3cc(O)ccc32)c1O (stereo not drawn) ; returns value.
95.8

Param readout= cell viability; system= HL-60; entry= `C[C@H](NC(=O)c1sccc1OCc1ccc(Cl)cc1)c1ccccc1` ; returns value.
70.8

Param readout= cell viability; system= HL-60; entry= `O=C(NCCCCCCNC(=O)ONC1=CCCCC1)ONC1=CCCCC1` ; returns value.
99.5

* * *

cell viability overview
- System: KU-812
- assay_protocol: cell viability (% survival relative to DMSO control, bortezomib = 0%); higher = less cytotoxic
- condition_context: 1000 nM; 72 h
Report only the number, with the unit % understood.

Answered cases to consult:
| molecule | cell viability, % |
| --- | --- |
| COC(=O)[C@]12CCC(C)(C)C[C@H]1[C@H]1C(=O)C=C3[C@@]4(C)C=C(C#N)C(=O)C(C)(C)[C@@H]4CC[C@@]3(C)[C@]1(C)CC2 | 91.3 |
| CC(C)c1cc2c(c(O)c1O)[C@@]1(C(=O)O)CCCC(C)(C)[C@@H]1CC2 | 92.6 |
| CCN(CC)CCCC(C)Nc1ccnc2cc(Cl)ccc12 (configuration not stated) | 98.1 |

Lab note: next molecule to report on.
Quick one: cell viability for Cc1cn([C@H]2C[C@H](O)[C@@H](COP(=O)(O)OP(=O)(O)O)O2)c(=O)[nH]c1=O [Thymidine diphosphate] ?
96.9

* * *

- System: myeloid leukemia patient primary cells Pat.13
- assay_protocol: cell viability (% survival relative to DMSO control); higher = less cytotoxic
- condition_context: 10000 nM; 72 h
Hi! Could you tag entries with cell viability below 30% as 1, and those at or above as 0? Much appreciated.

A selection of reference data follows.
| molecule | class_assignment |
| --- | --- |
| C=C(C=NNC(=N)N)NNC(=N)N [Mitoguazone] | 0 |
| CN(C)C(=O)n1nnnc1Cc1ccc(-c2ccccc2)cc1 | 1 |
| Oc1ccc(Nc2nc(-c3ccc(Cl)cc3)cs2)cc1 [SKI II] | 0 |
| O=C(O)Cn1nnc(-c2cc(N3CCC(Oc4cc(F)ccc4Br)CC3)no2)n1 [MK-8245] | 0 |
| CC[C@@]1(O)C(=O)OCc2c1cc1n(c2=O)Cc2cc3c(CN(C)C)c(O)ccc3nc2-1 [Topotecan] | 1 |

Now take the following molecule into account.
Say whether its cell viability is strictly beneath 30%. Entry: O=C(O)C1=CC(=C(c2ccc(O)c(C(=O)O)c2)c2ccc(O)c(C(=O)O)c2)C=CC1=O [Aurintricarboxylic acid]
0

Attribution: the supplement of paper PMC8671470
